study system: Muscarinic acetylcholine receptor M1 (Rattus norvegicus, UniProt P08482)
Sequence (P08482 whole entry): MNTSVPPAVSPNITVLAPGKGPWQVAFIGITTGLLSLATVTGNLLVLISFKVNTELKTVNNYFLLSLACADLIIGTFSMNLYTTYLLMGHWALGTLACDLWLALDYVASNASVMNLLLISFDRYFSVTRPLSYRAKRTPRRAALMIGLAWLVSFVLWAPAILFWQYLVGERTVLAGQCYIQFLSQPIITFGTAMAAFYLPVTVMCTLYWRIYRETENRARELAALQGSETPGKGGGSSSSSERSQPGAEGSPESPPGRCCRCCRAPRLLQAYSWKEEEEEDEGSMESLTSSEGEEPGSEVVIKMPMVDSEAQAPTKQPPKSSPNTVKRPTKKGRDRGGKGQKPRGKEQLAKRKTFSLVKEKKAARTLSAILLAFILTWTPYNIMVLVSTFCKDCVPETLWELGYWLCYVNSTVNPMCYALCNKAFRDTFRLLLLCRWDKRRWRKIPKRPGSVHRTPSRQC
test protocol: Evaluated for inhibition of binding of [3H]pirenzepine to homogenized rat cerebral cortex membranes
observation type: IC50 (µM)
I only need the number, in µM, no unit after it.

As a guide, the following entries are already answered.
compound | observation type | observed result
COC(=O)[C@@H]1C[C@H]2CN[C@@H]1C2 | IC50 | 1.41
COC(=O)[C@H]1C[C@@H]2CN[C@H]1C2 | IC50 | 2.57
COC(=O)[C@@H]1C[C@@H]2C[C@H]1N(C)C2 | IC50 | 3.89
COC(=O)C1CC2CNC1C2 (racemic) | IC50 | 1.95
COC(=O)C1CC2CC1N(C)C2 (racemic) | IC50 | 2.82

Next compound, please.
Request: Write down the reported IC50 of COC(=O)[C@H]1C[C@H]2C[C@@H]1N(C)C2 , test system: Muscarinic acetylcholine receptor M1 (Rattus norvegicus, UniProt P08482).
Response: 1.91

Data origin: ChEMBL document CHEMBL1152096
